Target: Corticotropin-releasing factor receptor 2/Corticotropin-releasing factor-binding protein (Homo sapiens, UniProt P24387+Q13324)
Sequence (Q13324 whole entry): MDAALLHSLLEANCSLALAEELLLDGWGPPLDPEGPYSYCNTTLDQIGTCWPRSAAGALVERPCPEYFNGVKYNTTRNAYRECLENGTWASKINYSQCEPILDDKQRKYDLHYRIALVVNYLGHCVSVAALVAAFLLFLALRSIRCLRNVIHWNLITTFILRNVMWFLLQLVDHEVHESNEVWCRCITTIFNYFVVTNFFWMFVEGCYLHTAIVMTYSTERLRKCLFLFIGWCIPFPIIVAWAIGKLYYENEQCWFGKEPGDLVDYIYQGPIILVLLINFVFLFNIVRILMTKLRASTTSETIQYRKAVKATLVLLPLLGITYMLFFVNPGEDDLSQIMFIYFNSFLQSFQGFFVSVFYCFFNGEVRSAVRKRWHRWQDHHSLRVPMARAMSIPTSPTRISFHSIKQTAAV
Sequence (P24387 whole entry): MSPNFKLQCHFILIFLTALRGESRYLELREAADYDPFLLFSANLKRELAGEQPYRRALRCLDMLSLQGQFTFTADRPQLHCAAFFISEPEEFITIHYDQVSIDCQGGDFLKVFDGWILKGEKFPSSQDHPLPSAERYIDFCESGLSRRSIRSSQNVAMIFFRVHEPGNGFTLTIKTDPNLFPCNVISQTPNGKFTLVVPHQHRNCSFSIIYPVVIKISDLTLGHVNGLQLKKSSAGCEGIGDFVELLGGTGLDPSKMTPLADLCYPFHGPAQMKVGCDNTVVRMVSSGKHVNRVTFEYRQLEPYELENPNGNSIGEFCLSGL
Test: activators of CRF receptor 2 with binding protein – uHTS hits, confirmation (AID 602473)
Assay type: functional
Conditions: read-out: EC50_Mean
Active and inactive are the calls of the source.
Classes used: yes for active, no for inactive

{"columns": ["compound", "assigned.class"],
 "data": [
  ["Cc1sc2ncnc(Sc3ccccc3C(=O)Nc3ccc(C#N)cc3)c2c1C", "no"],
  ["COc1ccc(C2c3c(-c4ccccc4O)n[nH]c3C(=O)N2Cc2ccco2)cc1 (stereo not given)", "no"],
  ["Cc1ccc(OCC(=O)N2CCN(c3nnc(-c4ccc(C)cc4)c4ccccc34)CC2)cc1", "no"],
  ["CC(NC(=O)C1CCCN1S(=O)(=O)c1cccc2nsnc12)c1ccccc1 (stereo not given)", "no"],
  ["COc1ccc(Nc2ccccc2)c(C)c1", "no"],
  ["CC(=O)c1c(C)[nH]c(C(=O)CN2C(=O)NC(C)(c3ccc(C)cc3)C2=O)c1C (stereo not given)", "yes"],
  ["O=C(CSCc1ccccc1)Nc1cc([N+](=O)[O-])ccc1F", "no"],
  ["COc1ccc(/C=C2/CC/C(=C\\c3ccc(OC)c(OC)c3OC)C2=O)c(OC)c1OC", "no"],
  ["COc1ccc(NC(=O)C(=O)NNC(=O)c2cccs2)c(OC)c1", "no"],
  ["O=C(COC(=O)CCc1ccc(S(=O)(=O)N2CCOCC2)cc1)Nc1ccccc1OC(F)F", "no"]
]}

* * *

// reported EC50 for each item listed
Experiment: Luminescence Cell-Based Dose Response HTS to Identify Inhibitors of 5'UTR Stem-Loop Driven Prion Protein mRNA Translation in H4 Neuroglioblastoma Cells. [Related pubchem assays: 1827 (Project Summary), 1813 (Primary HTS)]
Format: functional
Active and inactive are the calls of the source.

{"columns": ["molecule", "EC50"],
 "data": [
  ["Cc1cc(SC(C)C(=O)Nc2ncc(Cl)cc2Cl)nc2ccccc12 (stereo unspecified)", "> 120 µM (not active)"],
  ["CCCc1nc(NCc2ccccc2)c(C#N)c2c1CCCC2", "> 120 µM (not active)"],
  ["O=C(Nc1ccc2c(c1)OCO2)c1nn(-c2ccccc2)c(=O)c2ccccc12", "24 µM (active)"],
  ["O=C(Cc1ccc(-n2c(=O)[nH]c3ccccc3c2=O)cc1)N1CCN(c2cccc(Cl)c2)CC1", "25.3 µM (active)"],
  ["Cc1ccc(-n2ncc(C(=O)Nc3cc(Cl)cc(Cl)c3)c2C2CCNCC2)cc1C", "9.16 µM (active)"],
  ["CCOc1cccc(CNCCc2c(C)[nH]c3ccc(OC(F)(F)F)cc23)c1O", "17.2 µM (active)"]
]}

* * *

Biological target: UniProt Q96LD8
Sequence (Q96LD8 whole entry): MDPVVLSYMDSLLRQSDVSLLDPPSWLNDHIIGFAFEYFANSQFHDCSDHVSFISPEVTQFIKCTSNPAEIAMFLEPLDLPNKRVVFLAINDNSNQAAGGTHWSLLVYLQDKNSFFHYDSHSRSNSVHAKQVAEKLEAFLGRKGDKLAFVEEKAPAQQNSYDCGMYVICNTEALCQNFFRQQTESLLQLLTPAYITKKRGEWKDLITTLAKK
Assay type: functional
The source made the active and inactive calls.
measured.metric: IC50

{"columns": ["smiles.text", "test.target", "measured.metric", "reported"],
 "data": [
  ["CCOC(=O)Nc1ccc(C(=O)Oc2ccccc2)c(O)c1", "UniProt Q96LD8", "IC50", "79.9 µM (active)"],
  ["COc1cc([N+](=O)[O-])ccc1N/C=C/C(=O)c1cccs1", "UniProt Q96LD8", "IC50", "2.62 µM (active)"],
  ["COc1ccc(/C(C)=N/OCC(=O)Nc2nc3ccccc3s2)cc1OC", "UniProt Q96LD8", "IC50", "62.2 µM (active)"],
  ["CSc1ccccc1NC(=O)c1cc(C2CC2)on1", "UniProt Q96LD8", "IC50", "33.3 µM (active)"],
  ["Cc1ccc(-c2cc(-c3ccccc3)no2)cc1", "UniProt Q96LD8", "IC50", "23.7 µM (active)"],
  ["CCOc1ccccc1NC(=O)Nc1ccc2c(c1)CCC2", "UniProt Q96LD8", "IC50", "9.29 µM (active)"]
]}

* * *

Biological target: Short transient receptor potential channel 4 (Mus musculus)
Sequence (Q9QUQ5 whole entry): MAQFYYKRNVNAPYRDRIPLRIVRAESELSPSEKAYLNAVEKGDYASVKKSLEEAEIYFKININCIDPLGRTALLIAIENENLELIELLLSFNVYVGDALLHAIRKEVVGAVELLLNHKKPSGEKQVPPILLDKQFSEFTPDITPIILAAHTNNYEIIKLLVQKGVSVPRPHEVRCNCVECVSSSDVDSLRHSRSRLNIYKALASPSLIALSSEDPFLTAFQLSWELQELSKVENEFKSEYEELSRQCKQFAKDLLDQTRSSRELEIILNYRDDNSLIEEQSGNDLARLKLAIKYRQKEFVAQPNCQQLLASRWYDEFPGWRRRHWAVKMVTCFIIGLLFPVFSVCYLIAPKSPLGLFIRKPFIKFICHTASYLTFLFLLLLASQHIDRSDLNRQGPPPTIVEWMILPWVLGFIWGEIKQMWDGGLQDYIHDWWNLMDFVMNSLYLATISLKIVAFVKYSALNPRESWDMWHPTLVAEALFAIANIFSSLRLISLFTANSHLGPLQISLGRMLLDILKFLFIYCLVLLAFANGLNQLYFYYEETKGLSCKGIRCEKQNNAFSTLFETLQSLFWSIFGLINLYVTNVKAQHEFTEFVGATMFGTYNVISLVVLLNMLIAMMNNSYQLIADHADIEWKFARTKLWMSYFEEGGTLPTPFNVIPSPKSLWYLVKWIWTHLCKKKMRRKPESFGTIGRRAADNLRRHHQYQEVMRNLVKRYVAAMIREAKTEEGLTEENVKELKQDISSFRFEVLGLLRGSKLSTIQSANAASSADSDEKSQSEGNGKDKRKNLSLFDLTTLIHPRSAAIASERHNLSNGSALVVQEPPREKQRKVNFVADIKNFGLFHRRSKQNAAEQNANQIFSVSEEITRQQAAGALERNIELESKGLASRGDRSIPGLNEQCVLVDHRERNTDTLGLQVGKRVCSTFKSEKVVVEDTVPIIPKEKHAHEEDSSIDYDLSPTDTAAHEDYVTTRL
Experiment: mouse TRPC4 channel inhibitors, dose response, cell-based, HEK293 TRPC4/mu-opioid, Fluo-4 calcium (AID 434942);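 further: potency of inhibitors blocking the TRPC4 calcium response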
Assay type: functional
Calls of active or inactive are those of the source.

{"columns": ["molecule", "EC50"],
 "data": [
  ["Cc1ccc(C2(O)C[N+](c3ccccc3)=C3SCCN32)cc1 (stereo unspecified)", "237 nM (active)"],
  ["CCCCn1c(NCCO)nc2ccccc21", "1680 nM (active)"],
  ["CCc1ccc(C(CNc2nc(C(F)(F)F)nc3ccccc23)N(C)C)cc1 (stereo unspecified)", "1060 nM (active)"],
  ["COc1ccc2[nH]c(NCc3ccccc3)nc2c1", "1680 nM (active)"],
  ["CCN=C(S)N1CCC(C(O)(c2ccccc2)c2ccccc2)CC1", "1680 nM (active)"],
  ["OCC1(CCCc2ccccc2)CCN(Cc2cc(F)ccc2F)CC1", "4220 nM (active)"]
]}

* * *

Target: UniProt:P03070
Sequence (P03070 whole entry): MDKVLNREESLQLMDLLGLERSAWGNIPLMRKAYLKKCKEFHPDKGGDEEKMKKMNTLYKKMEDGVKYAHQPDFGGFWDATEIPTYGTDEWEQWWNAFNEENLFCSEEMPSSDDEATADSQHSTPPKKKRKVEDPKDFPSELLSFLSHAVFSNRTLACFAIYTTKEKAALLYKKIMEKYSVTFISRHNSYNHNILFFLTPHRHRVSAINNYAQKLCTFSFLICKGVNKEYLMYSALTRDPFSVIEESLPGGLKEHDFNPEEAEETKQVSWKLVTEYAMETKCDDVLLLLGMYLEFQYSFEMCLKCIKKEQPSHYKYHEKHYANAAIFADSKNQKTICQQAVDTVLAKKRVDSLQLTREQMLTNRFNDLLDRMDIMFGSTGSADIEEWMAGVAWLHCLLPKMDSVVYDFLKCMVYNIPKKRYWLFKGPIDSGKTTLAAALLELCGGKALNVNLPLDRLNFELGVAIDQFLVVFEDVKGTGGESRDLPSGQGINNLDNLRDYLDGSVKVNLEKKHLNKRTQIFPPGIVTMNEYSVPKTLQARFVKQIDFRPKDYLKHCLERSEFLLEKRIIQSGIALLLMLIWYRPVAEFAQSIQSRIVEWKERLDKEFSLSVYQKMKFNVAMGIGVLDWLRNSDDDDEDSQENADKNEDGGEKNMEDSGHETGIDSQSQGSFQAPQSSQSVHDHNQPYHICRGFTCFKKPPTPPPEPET
Format: functional, Betapolyomavirus macacae
Active and inactive are the calls of the source.
// reported IC50 for each item listed
measured.metric: IC50

{"columns": ["compound", "reported"],
 "data": [
  ["O=C(O)C(c1ccccc1)N1C(=O)/C(=C\\c2ccc(O)c(O)c2)SC1=S (configuration not stated)", "7.85 µM (active)"],
  ["COc1cc(-c2cc(=O)c3ccccc3o2)ccc1O", "9.46 µM (active)"],
  ["Cc1cc2c(Nc3ccc(O)cc3)ncnc2s1", "5.5 µM (active)"],
  ["CC1=NCCc2c1[nH]c1cc(O)ccc21", "8.18 µM (active)"],
  ["Cc1ccc2c(c1)C1C=CCC1C(C(=O)O)N2 (configuration not stated)", "9.1 µM (active)"],
  ["Cc1ccc(S(=O)(=O)Nc2nc(C)cc(N/N=C/c3ccc(O)cc3)n2)cc1", "10.6 µM (active)"],
  ["CCN(CC)c1ccc(NC(=O)c2cccnc2)cc1", "13.5 µM (active)"],
  ["COc1cc(/C=C2\\NC(=S)N(C)C2=O)ccc1O", "3.22 µM (active)"],
  ["COc1cc(C(=O)Nc2ccc(O)cc2)ccc1OC(C)=O", "6.12 µM (active)"],
  ["CCc1cc(SC#N)cc(C)c1NC(=O)CCl", "> 100 µM (active)"],
  ["O=c1c2ccccc2sn1-c1nccs1", "12.9 µM (active)"],
  ["NC1=NC(=O)/C(=C\\c2ccco2)S1", "67.2 µM (active)"]
]}

* * *

Molecular target: 5-hydroxytryptamine receptor 5A (Homo sapiens)
Sequence (P47898 whole entry): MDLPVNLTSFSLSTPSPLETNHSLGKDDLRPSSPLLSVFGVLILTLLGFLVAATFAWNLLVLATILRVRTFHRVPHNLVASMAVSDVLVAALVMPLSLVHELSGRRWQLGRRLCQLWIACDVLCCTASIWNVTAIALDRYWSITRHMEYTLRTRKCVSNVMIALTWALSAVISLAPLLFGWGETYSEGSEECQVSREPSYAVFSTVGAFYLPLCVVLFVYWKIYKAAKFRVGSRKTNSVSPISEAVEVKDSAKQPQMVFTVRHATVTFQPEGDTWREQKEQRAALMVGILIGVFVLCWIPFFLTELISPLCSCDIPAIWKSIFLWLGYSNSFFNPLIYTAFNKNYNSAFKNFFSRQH
Assay: Counterscreen for agonists of OPRM1-OPRD1 heterodimerization: luminescence-based cell-based high throughput dose response assay to identify agonists of 5-hydroxytryptamine (serotonin) 5A receptor (HTR5A). [Related pubchem assays (depositor defined):AID504326, AID504355, AID504692, AID504904, AID504905]
Type: functional
Active and inactive are the calls of the source.
measured.metric: EC50

{"columns": ["compound", "measured.metric", "reported"],
 "data": [
  ["Cc1cc(=O)oc2cc(NC(=O)C3COc4ccccc4O3)ccc12 (centres undefined)", "EC50", "> 92.5 µM (inactive)"],
  ["COc1ccc(C(CNC(=O)c2cncc(Br)c2)N(C)C)cc1 (centres undefined)", "EC50", "> 92.5 µM (inactive)"],
  ["Cc1ccc(C2(O)C[N+](c3ccccc3)=C3SCCN32)cc1 (centres undefined)", "EC50", "> 92.5 µM (inactive)"],
  ["Cc1ccc(OCC(=O)Nc2ccc(NC(=O)c3cccs3)cc2)c(C)c1", "EC50", "> 92.5 µM (inactive)"]
]}

* * *

Assay: Shn3 3'UTR reporter inhibitors, dose response, cell-based, Clone20 osteoblasts, firefly luciferase, cherry-picked (AID 624132);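 further: firefly luciferase luminescence from reporter carrying the Shn3 3'UTR in osteoblasts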
Type: functional
Active and inactive are the calls of the source.
measured.metric: AC50

{"columns": ["smiles.text", "reported"],
 "data": [
  ["CN(Cc1ccc(Cl)c(Cl)c1)C(=O)c1cccc(S(=O)(=O)N2CCN(Cc3ccccc3)CC2)c1", "3470 nM (active)"],
  ["CCOc1cccc(CNCCc2c(C)[nH]c3ccc(OC(F)(F)F)cc23)c1O", "611 nM (active)"],
  ["CN(CC(=O)Nc1ccccc1Cl)C(=O)c1cccc(S(=O)(=O)N2CCN(c3ccc(F)cc3)CC2)c1", "3620 nM (active)"],
  ["O[C@@H]1CN(Cc2ccc(-n3cccn3)cc2)CC[C@H]1N1CCN(c2ccccc2F)CC1", "2130 nM (active)"]
]}

* * *

Observed AC50 for Cytochrome P450 2D6 (Homo sapiens, UniProt P10635), reported per entry below.

{"columns": ["molecule", "AC50"],
 "data": [
  ["O=C(CSc1nnc(-c2ccco2)n1-c1ccccc1)NCc1ccco1", "14.1 µM (inconclusive)"],
  ["CNc1nc(-c2cccnc2)nc2ccccc12", "39.8 µM (inconclusive)"],
  ["CC(O)(CS(=O)(=O)Cc1ccc(Cl)cc1)C(=O)Nc1cccc(C(F)(F)F)c1 (stereo not given)", "15.8 µM (inconclusive)"],
  ["C/C(CCN1CCCCc2nc(C)c(C)cc21)=N\\O[C@@H](C)c1cc(-c2c(C)cc(C)cc2C)no1", "3.16 µM (inconclusive)"],
  ["COc1ccc(NC(=O)CCSc2cc(C)c3ccccc3n2)cc1", "31.6 µM (inconclusive)"]
]}
